// provenance: paper PMC10397247

Target Desc: T1, P4A-bS
T1 chain: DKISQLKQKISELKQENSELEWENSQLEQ
Assay Protocol: two-hybrid library CCNG1;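 further: natural log of median RNA to DNA barcode read ratio; higher means stronger binding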
Quantity Name: interaction score
Answers are plain numbers.

DKISQLKQKISELKQENSELEWENSQLEQ [P4A-bS]; -1.08
DKNSQLKQENSELEQKISELKWKISQLKQ [P10A-bS]; -0.106
DKNSQLKQKISELKQKISELKWENSQLEQ [P12A-bS]; -1.12

Give one value of interaction score per listed binder.
1. DEISQLEQENSELEQENSELEWEISQLEQ [P1A-bS]
2. DEISQLEQEISELEQKNSELKWKNSQLKQ [P3A-bS]
3. DKISQLKQKNSELKQKNSELKWKISQLKQ [P2A-bS]
4. DENSQLEQEISELEQEISELEWKNSQLKQ [P11A-bS]
5. DKIAQLKQEIAELKQKIAELKWENAQLEQ [4H2667-bA]

1. -0.182
2. 1.45
3. -0.497
4. 0.142
5. -1.72
